Recorded LD50 at 168 h values for a group of molecules are listed next.
PROTOCOL_SUMMARY: in vivo
CONDITION_PARAMETERS: ip, mouse, i.p., read-out: C: LD50 (i.p.)
Form entry: value (mg/kg) — number only.

What value of LD50 at 168 h has been recorded for this entry: "CN(C(=O)c1ccc(Cl)c(Cl)c1)c1ccccc1CCCC(=O)O"
250

Try "CN(C(=O)c1cccc(C(F)(F)F)c1)c1ccccc1CCCC(=O)O" next.
150

====

PROTOCOL_SUMMARY: in vivo
CONDITION_PARAMETERS: po, mouse, per os, read-out: C: LD50
ENDPOINT_LABEL: LD50 at 168 h

Consider the reported LD50 at 168 h for these compounds:
{"COMPOUND": "CN(C(=O)c1ccccc1)c1ccccc1CCC(=O)O [Serial No. 6]", "LD50 at 168 h": "970 mg/kg"}
{"COMPOUND": "CN(C(=O)c1ccc(Cl)cc1)c1ccccc1CCCC(=O)O [Serial No. 9]", "LD50 at 168 h": "> 1000 mg/kg"}
{"COMPOUND": "CN(C(=O)c1ccc(Cl)c(Cl)c1)c1ccc(Cl)cc1CCC(=O)O [Serial No. 7]", "LD50 at 168 h": "> 1000 mg/kg"}
{"COMPOUND": "CN(C(=O)c1ccc(Cl)c(Cl)c1)c1ccccc1CCC(=O)O [Serial No. 5]", "LD50 at 168 h": "1100 mg/kg"}
{"COMPOUND": "CN(C(=O)c1cccc(C(F)(F)F)c1)c1ccc(Cl)cc1CCC(=O)O [Serial No. 8]", "LD50 at 168 h": "> 1000 mg/kg"}

Now take the following compound into account.
Item under review: CN(C(=O)c1ccc(Cl)cc1Cl)c1ccccc1CCCC(=O)O [Serial No. 11] . Reported LD50 at 168 h?
> 1000 mg/kg
